These measurements were taken from paper PMC3907359.

# Target Under Test: Ode(29-63-8), ACh-nAChR (Oesophagostomum dentatum, UniProt E5KIX9+L7MMZ7+V5J2B2)
# Construct: full-length cDNAs (UNC-29 497 aa, UNC-63 507 aa, ACR-8 538 aa), pTB-207, cRNA 1:1:1 in Xenopus laevis oocytes; heteropentamer, stoichiometry undetermined; with H. contortus chaperones RIC-3, UNC-50, UNC-74
# Sequence (V5J2B2 21-497): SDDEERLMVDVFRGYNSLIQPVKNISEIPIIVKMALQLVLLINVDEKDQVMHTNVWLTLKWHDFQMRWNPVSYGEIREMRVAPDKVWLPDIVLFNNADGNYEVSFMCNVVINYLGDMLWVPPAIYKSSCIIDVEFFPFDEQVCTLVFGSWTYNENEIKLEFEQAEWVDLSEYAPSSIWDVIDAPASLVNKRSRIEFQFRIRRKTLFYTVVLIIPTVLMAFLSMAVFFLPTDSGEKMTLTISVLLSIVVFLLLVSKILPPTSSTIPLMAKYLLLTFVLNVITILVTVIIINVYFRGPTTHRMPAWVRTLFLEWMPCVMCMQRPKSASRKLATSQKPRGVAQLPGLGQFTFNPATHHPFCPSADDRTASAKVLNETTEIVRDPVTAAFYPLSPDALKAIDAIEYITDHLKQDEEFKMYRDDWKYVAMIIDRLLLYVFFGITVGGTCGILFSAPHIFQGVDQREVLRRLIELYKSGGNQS
# Sequence (E5KIX9 22-507): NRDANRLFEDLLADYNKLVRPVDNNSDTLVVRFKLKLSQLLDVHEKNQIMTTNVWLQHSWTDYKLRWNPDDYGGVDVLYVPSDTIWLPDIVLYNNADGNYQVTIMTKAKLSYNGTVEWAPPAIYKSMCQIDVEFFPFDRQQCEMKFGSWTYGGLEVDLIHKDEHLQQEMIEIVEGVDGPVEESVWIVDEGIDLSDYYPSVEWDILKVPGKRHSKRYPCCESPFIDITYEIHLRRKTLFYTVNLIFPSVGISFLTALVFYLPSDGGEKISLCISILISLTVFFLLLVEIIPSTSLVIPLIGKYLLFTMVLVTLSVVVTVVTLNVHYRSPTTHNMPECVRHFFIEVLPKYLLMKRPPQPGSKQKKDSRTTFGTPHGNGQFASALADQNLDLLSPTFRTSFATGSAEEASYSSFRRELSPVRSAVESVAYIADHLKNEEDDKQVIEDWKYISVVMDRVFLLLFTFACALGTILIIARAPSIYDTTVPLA
# Sequence (L7MMZ7 21-538): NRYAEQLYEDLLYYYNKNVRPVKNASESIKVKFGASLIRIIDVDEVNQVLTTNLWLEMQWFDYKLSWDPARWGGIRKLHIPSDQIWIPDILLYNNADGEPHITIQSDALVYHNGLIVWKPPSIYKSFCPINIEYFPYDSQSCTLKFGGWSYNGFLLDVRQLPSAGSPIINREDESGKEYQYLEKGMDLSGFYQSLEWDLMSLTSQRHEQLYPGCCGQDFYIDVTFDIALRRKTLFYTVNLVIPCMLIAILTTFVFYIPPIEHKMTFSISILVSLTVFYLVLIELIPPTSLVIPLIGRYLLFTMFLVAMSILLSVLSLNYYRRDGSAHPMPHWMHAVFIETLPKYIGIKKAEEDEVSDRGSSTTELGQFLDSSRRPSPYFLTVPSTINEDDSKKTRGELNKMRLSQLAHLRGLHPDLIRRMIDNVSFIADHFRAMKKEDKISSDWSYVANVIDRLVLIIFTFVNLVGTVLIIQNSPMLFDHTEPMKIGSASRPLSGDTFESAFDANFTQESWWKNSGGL
# Procedure Details: two-electrode voltage clamp, Xenopus oocytes, agonist dose-response
Property Name: EC50 (µM)
Dear colleague, please return just the value in µM, with no unit written.

Asked: Give the reported EC50 for this compound. CC(=O)OCC[N+](C)(C)C
Given back: 3.5
